Molecular target: Adrenergic alpha2A (Homo sapiens)
Sequence (P08913 1-465): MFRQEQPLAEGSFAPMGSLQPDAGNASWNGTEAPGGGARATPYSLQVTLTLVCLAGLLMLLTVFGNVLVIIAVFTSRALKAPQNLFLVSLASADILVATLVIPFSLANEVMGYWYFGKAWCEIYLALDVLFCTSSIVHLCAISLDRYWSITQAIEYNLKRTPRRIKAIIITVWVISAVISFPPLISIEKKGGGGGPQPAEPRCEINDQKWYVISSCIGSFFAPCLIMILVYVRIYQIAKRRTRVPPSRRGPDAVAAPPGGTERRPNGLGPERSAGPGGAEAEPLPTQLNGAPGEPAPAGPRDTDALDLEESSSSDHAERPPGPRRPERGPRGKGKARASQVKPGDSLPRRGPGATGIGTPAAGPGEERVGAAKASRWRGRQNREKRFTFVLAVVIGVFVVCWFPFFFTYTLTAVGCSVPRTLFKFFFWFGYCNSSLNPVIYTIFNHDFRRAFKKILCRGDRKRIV
pKi: −log10 of the molar value.
quantity: pKi

1. CCN(CCCNC(=O)c1ccc2ccccc2c1)CCNC(=O)c1cc(Br)cc(OC)c1OC [21a] ... 5.71
2. CCCN(CCCNC(=O)c1ccc(-c2cccs2)cc1)CCNC(=O)c1cc(Br)cc(OC)c1OC [20a] ... 6.13
3. CCN(CCCNC(=O)c1ccc(-c2ccncc2)cc1)CCNC(=O)c1cc(Br)cc(OC)c1OC [21c] ... 5.59
4. CCN(CCCNC(=O)c1cc2ccccc2[nH]1)CCNC(=O)c1cc(Br)cc(OC)c1OC [21d] ... 5.67
5. CCN(CCCNC(=O)c1ccsc1)CCNC(=O)c1cc(Br)cc(OC)c1OC [21i] ... 5.48
6. CCN(CCCNC(=O)c1ccc(-c2cccs2)cc1)CCNC(=O)c1cc(Br)cc(OC)c1OC ... 5.87
7. CCN(CCCNC(=O)c1cn2ccccc2n1)CCNC(=O)c1cc(Br)cc(OC)c1OC [21e] ... 5.25
8. CCN(CCCNC(=O)c1ccc(-c2ccsc2)cc1)CCNC(=O)c1cc(Br)cc(OC)c1OC [21g] ... 5.94
9. CCN(CCCNC(=O)c1cc2ccccc2n1C)CCNC(=O)c1cc(Br)cc(OC)c1OC [21j] ... 5.51
